Molecular target: T1, AdipoR1-Δ88 (adiponectin receptor 1 lacking the N-terminal 88 residues) (human, UniProt Q96A54 89-375)
T1 construct: Adiponectin receptor 1 (AdipoR1), human; N-terminal 88 residues deleted; gene synthesised, codon-optimised for insect cells; Kept in 0.025% DDM and 0.0001% CHS; The functional rows were done on mouse C2C12 or human HepG2 cells with their own AdipoR1; m1 stands there for AdipoR1; also called AdipR1-Δ88; source: SF9 cells (Bac-to-Bac baculovirus), solubilised with 1% DDM, purified (anti-flag …)
T1 sequence (looked up): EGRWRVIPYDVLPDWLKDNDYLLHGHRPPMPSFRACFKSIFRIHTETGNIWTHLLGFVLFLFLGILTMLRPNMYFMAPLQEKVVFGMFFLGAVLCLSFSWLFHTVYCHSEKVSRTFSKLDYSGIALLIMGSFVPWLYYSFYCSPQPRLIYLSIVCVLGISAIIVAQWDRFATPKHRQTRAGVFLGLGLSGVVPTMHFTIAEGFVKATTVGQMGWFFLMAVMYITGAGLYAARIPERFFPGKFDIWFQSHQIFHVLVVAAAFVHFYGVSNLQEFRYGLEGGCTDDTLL
Assay: SPR; AdipoR1-Δ88 immobilised on CM5 chip by amine coupling at pH 5 (around 4000 RU); peptides 1 to 100 μM injected, 60 s contact, 200 s dissociation, 30 μl/min, 4°C; 20 mM HEPES pH 7.4, 150 mM NaCl, 10% glycerol, 0.025% DDM, 0.0001% CHS; Kd from saturation curves of responses at equilibrium
Details: both partners purified
pKd: −log10 of the molar value.
The reader will find reported pKd values listed item by item below.

binder	pKd
WYFAYHPNIPGLWYF (designed 15-mer, adiponectin-mimetic; free N- and C-termini as printed (NH2-...-COOH); source: synthetic peptide (AnyGen Ltd.)) [BHD43]	5.00
YYFAYHPNIPGLYYF (designed 15-mer, adiponectin-mimetic; free N- and C-termini as printed (NH2-...-COOH); also called BHD31; source: synthetic peptide (AnyGen Ltd.)) [BHD1028]	4.80
FYFAYHPNIPGLFYF (designed 15-mer, adiponectin-mimetic; free N- and C-termini as printed (NH2-...-COOH); source: synthetic peptide (AnyGen Ltd.)) [BHD44]	5.37
